In this section we review reported IC50 values for a set of compounds.
# assayed-system: BRD4(D2) (Homo sapiens (Human))
# procedure-details: Inhibitory activity against BRD4(D2), HTRF assay
# Assay type: binding
# settings: class symbols
# Procedure: (+)-JQ1 was used as comparison compound, to evaluated the inhibitory activity of compounds of the invention against BRD4(D1) and BRD4(D2) in vitro. The assays of BRD4 (D1) and BRD4 (D2) were conducted in a 384-well polystyrene plate. The test compounds were first serially diluted in DMSO and the test compound/DMSO were transferred to 384-well plates. The final concentration of DMSO in the assay was 0.1%. […] Then the HTRF signal on EnVision was readed. […]

For Cc1nc2ncc(-c3cn(C)c(=O)c4[nH]ccc34)nc2n1Cc1ccc(Br)cc1 the compound record lists IC50 as < 100 nM

So, Cc1nc2ncc(-c3cn(C)c(=O)c4[nH]ccc34)nc2n1Cc1cccc(C(F)(F)F)c1 ? Its IC50 was < 100 nM

Entry Cc1nc2ncc(-c3cn(C)c(=O)c4[nH]ccc34)nc2n1Cc1cc(F)cc(C(F)(F)F)c1 ; IC50 = < 100 nM

Looking up CCS(=O)(=O)Nc1cc(-c2cn(C)c(=O)c3[nH]ccc23)cc2c1nc(C)n2Cc1ccccc1 , I found its IC50 recorded as < 100 nM

Lab note: CCS(=O)(=O)Nc1cc(-c2cn(C)c(=O)c3[nH]ccc23)cc2c1nc(C)n2Cc1ccc(S(C)(=O)=O)cc1 gave IC50 of < 100 nM

Quick note, IC50 for CCS(=O)(=O)Nc1cc(-c2cn(C)c(=O)c3[nH]ccc23)nc2c1ncn2C(C)c1ccc(Cl)cc1 (centres unmarked) landed at 100 to 300 nM

Measured IC50 of CCS(=O)(=O)Nc1cc(-c2cn(C)c(=O)c3[nH]ccc23)cc2c1nc(C)n2Cc1ccc(C(F)(F)F)c(Cl)c1 : < 100 nM

For record Cc1nc2ncc(-c3cn(C)c(=O)c4[nH]ccc34)nc2n1Cc1ccc(S(C)(=O)=O)cc1 the listed IC50 is < 100 nM

IC50 recorded for this compound, COc1ccc(Cn2c(C)nc3ncc(-c4cn(Cc5ccn[nH]5)c(=O)c5[nH]ccc45)cc32)cc1 , is 100 to 300 nM

Memo: CCS(=O)(=O)Nc1cc(-c2cn(C)c(=O)c3[nH]ccc23)cc2c1nc(C)n2Cc1ccc(C(F)(F)F)cc1 , reported IC50: < 100 nM

// Cc1nc2ncc(-c3cn(C)c(=O)c4[nH]ccc34)nc2n1Cc1cc(C(F)(F)F)ccc1F : IC50 value = < 100 nM

Per the record, COc1cccc(Cn2c(C)nc3ncc(-c4c[nH]c(=O)c5[nH]c(C)cc45)cc32)c1 has IC50 of < 100 nM

In plain terms, CCS(=O)(=O)Nc1cc(-c2cn(C)c(=O)c3[nH]ccc23)cc2c1nc(C)n2C(C)c1ccc(Cl)cc1 (centres unmarked) has a documented IC50 of < 100 nM

Record summary for CCS(=O)(=O)Nc1cc(-c2cn(C)c(=O)c3[nH]ccc23)cc2c1nc(C)n2Cc1ccc(C(F)(F)F)c(F)c1 : reported IC50 = < 100 nM

Lab note: measured IC50 of CCS(=O)(=O)Nc1cc(-c2cn(C)c(=O)c3[nH]ccc23)cc2c1nc(C)n2Cc1cc(F)cc(C(F)(F)F)c1 was < 100 nM

Reported IC50 for COc1ccc(Cn2c(C)nc3ncc(-c4cn(Cc5nccs5)c(=O)c5[nH]ccc45)cc32)cc1 was > 300 nM

get_value(item= Cc1nc2ncc(-c3cn(C)c(=O)c4[nH]ccc34)nc2n1Cc1ccc(Cl)c(C(F)(F)F)c1 , readout=IC50) returns < 100 nM

// field: IC50; key: CCS(=O)(=O)Nc1cc(-c2cn(C)c(=O)c3[nH]ccc23)cc2c1nc(C)n2Cc1ccc(Cl)c(C(F)(F)F)c1 ; value = < 100 nM

Documented IC50 of COc1ccc(Cn2c(C)nc3ncc(-c4cn(CC(C)C)c(=O)c5[nH]ccc45)cc32)cc1 : 100 to 300 nM

Kindly note the recorded IC50 for CCS(=O)(=O)Nc1cc(-c2cn(C)c(=O)c3[nH]ccc23)cc2c1nc(C)n2Cc1ccc(F)cc1Cl , which is < 100 nM

Measured IC50, Cc1nc2ncc(-c3cn(C)c(=O)c4[nH]ccc34)nc2n1Cc1cccc(Cl)c1 : < 100 nM

response.value for Cc1nc2ncc(-c3cn(C)c(=O)c4[nH]ccc34)nc2n1Cc1ccc(F)cc1F (field: IC50) = < 100 nM

Please fill in: IC50 reported for CCS(=O)(=O)Nc1cc(-c2cn(C)c(=O)c3[nH]ccc23)nc2c1nc(C)n2Cc1c(C)cccc1C = < 100 nM

GET /value?item= Cc1nc2ncc(-c3cn(C)c(=O)c4[nH]ccc34)nc2n1Cc1ccc(C(F)(F)F)c(F)c1 &field=IC50 returns < 100 nM

Summary for this compound, CCS(=O)(=O)Nc1cc(-c2cn(C)c(=O)c3[nH]ccc23)nc2c1nc(C)n2Cc1ccc(C(F)(F)F)cc1 : IC50 is < 100 nM
